Examples of compounds with documented MIC follow.
- Test system: C. glabrata ATCC 15126
- Assay: MIC, broth double dilution
- Type: cell-based
- Experimental conditions: strain no. 41, C. glabrata ATCC 15126
- Protocol: The antifungal activities of compounds 1a, 1 and 2 (collectively: caspofungin derivatives) were compared to that of caspofungin and CSF-BOD using a panel of 49 C. albicans and C. glabrata strains (Tables 1 and 2). […] Minimal inhibitory concentration (MIC) values for all strains were determined using the broth double dilution method and are summarized in FIG. 2 and Table 2. MIC values were determined using the broth double-dilution method. […]

Compound: CC[C@H](C)C[C@H](C)CCCCCCCCC(=O)N[C@H]1C[C@@H](O)[C@@H](NCCNC(=O)CCc2ccc3n2[B-](F)(F)[N+]2=C(C)C=C(C)C2=C3)NC(=O)[C@@H]2[C@@H](O)CCN2C(=O)[C@H]([C@H](O)CCN)NC(=O)[C@H]([C@H](O)[C@@H](O)c2ccc(O)cc2)NC(=O)[C@@H]2C[C@@H](O)CN2C(=O)[C@H]([C@@H](C)O)NC1=O [CSF-BOD]
Limit sign: =
MIC / µg/mL: 2

Compound: CN(C)c1ccc2c(-c3ccc(C(=O)NCCCN=[N+]=[N-])cc3C(=O)[O-])c3ccc(=[N+](C)C)cc-3oc2c1 [Compound 5-TMR-azide]
Limit sign: >
MIC / µg/mL: 64

Compound: CC[C@H](C)C[C@H](C)CCCCCCCCC(=O)N[C@H]1C[C@@H](O)[C@@H](NCCN)NC(=O)[C@@H]2[C@@H](O)CCN2C(=O)[C@H]([C@H](O)CCN)NC(=O)[C@H]([C@H](O)[C@@H](O)c2ccc(OCc3cn(CCCNc4ccc([N+](=O)[O-])c5nonc45)nn3)cc2)NC(=O)[C@@H]2C[C@@H](O)CN2C(=O)[C@H]([C@@H](C)O)NC1=O [Compound 2]
Limit sign: =
MIC / µg/mL: 4

Compound: C#CCOc1ccc([C@H](O)[C@@H](O)[C@@H]2NC(=O)[C@@H]3C[C@@H](O)CN3C(=O)[C@H]([C@@H](C)O)NC(=O)[C@@H](NC(=O)CCCCCCCC[C@@H](C)C[C@@H](C)CC)C[C@@H](O)[C@@H](NCCN)NC(=O)[C@@H]3[C@@H](O)CCN3C(=O)[C@H]([C@H](O)CCN)NC2=O)cc1 [Compound 1a]
Limit sign: =
MIC / µg/mL: 1

Compound: CC[C@H](C)C[C@H](C)CCCCCCCCC(=O)N[C@H]1C[C@@H](O)[C@@H](NCCN)NC(=O)[C@@H]2[C@@H](O)CCN2C(=O)[C@H]([C@H](O)CCN)NC(=O)[C@H]([C@H](O)[C@@H](O)c2ccc(OCc3cn(CCCNC(=O)c4ccc(-c5c6ccc(=[N+](C)C)cc-6oc6cc(N(C)C)ccc56)c(C(=O)[O-])c4)nn3)cc2)NC(=O)[C@@H]2C[C@@H](O)CN2C(=O)[C@H]([C@@H](C)O)NC1=O [Compound 1]
Limit sign: =
MIC / µg/mL: 1

The values you see were collected from patent US20230173018A1.
